- measurement.notes: Photophysical characterization (absorption, fluorescence, phosphorescence, lifetime)
- Assay type: physicochemical
- condition.info: 2% DMSO
property.label: λem (nm)
The answer is to be given in nm; state only the numeric part.

{"entry.smiles": "O=C(O)c1ccccc1-c1c2ccc(=O)c(Br)c-2oc2c(Br)c(O)ccc12", "val": 531}
{"entry.smiles": "O=C(O)c1c(Cl)c(Cl)c(Cl)c(Cl)c1-c1c2ccc(=O)cc-2oc2cc(O)ccc12", "val": 531}
{"entry.smiles": "O=C(O)c1c(Cl)c(Cl)c(Cl)c(Cl)c1-c1c2cc(Br)c(=O)c(Br)c-2oc2c(Br)c(O)c(Br)cc12", "val": 560}

Now consider a different molecule.
Req: Fill in: λem of O=C(O)c1ccccc1-c1c2ccc(=O)c(I)c-2oc2c(I)c(O)ccc12 is ___
Resp: 549

###

- Test system: E. coli
- measurement.notes: IC50 / growth inhibition of photodynamic inactivation, E. coli
- condition.info: Escherichia coli, 10 min, pH 2.5, read-out: IC50 (E. coli)
property.label: IC50 (nM)
The answer is to be given in nM; state only the numeric part.

Req: Fill in: IC50 of O=C(O)c1ccccc1-c1c2cc(I)c(=O)c(I)c-2oc2c(I)c(O)c(I)cc12 is ___
Resp: 210

###

- measurement.notes: pH titration of halogenated fluorescein (pH0.5)
- Type: physicochemical
- condition.info: pH value when the open form reduces to half of the maximum; pH titration, 10 μM, citric acid–Na2HPO4 buffer
Quick rule for you: pH0.5 at 3 or higher means fulfilled, lower means not fulfilled.

Req: pH0.5 >= 3 for O=C(O)c1ccccc1-c1c2ccc(=O)c(I)c-2oc2c(I)c(O)ccc12 [DIF, Diiodo-fluorescein] ?
Resp: fulfilled

Req: Item: O=C(O)c1c(Cl)c(Cl)c(Cl)c(Cl)c1-c1c2cc(Cl)c(=O)c(Cl)c-2oc2c(Cl)c(O)c(Cl)cc12 [OCF, Octachloro-fluorescein]
Resp: fulfilled

Req: Item: O=C(O)c1c(Cl)c(Cl)c(Cl)c(Cl)c1-c1c2cc(I)c(=O)c(I)c-2oc2c(I)c(O)c(I)cc12 [RB, Tetraiodo-tetrachloro-fluorescein]
Resp: fulfilled

Req: Item: O=C(O)c1ccccc1-c1c2cc(Cl)c(=O)c(Cl)c-2oc2c(Cl)c(O)c(Cl)cc12 [TCF-1, Tetrachloro-fluorescein-1]
Resp: not fulfilled

Req: Item: O=C(O)c1c(Cl)c(Cl)c(Cl)c(Cl)c1-c1c2cc(Br)c(=O)c(Br)c-2oc2c(Br)c(O)c(Br)cc12 [PB, Tetrabromo-tetrachloro-fluorescein]
Resp: fulfilled

###

Measured pH0.5 values are reported for all entries that follow.
- measurement.notes: pH titration of halogenated fluorescein (pH0.5)
- Assay type: physicochemical
- condition.info: 2% DMSO citric acid-disodium hydrogen phosphate buffer (Supplementary Table 4)
- Protocol: The pH0.5 values (the pH value when the open form reduce to the half of the maximum) of various fluorescein derivatives were determined experimentally through pH titration (Supplementary Figs. 6–16). The pH of the solutions were adjusted through varying the ratios of citric acid and Na2HPO4 (pH 2.2–8.0), and further acidity was adjusted with concentrated HCl or 1 M NaOH. The absorption and fluorescence spectra of the resultant solutions were then collected. […]
Form rule: numeric answer, no unit written next to it.

{"entry.smiles": "O=C(O)c1ccccc1-c1c2ccc(=O)c(I)c-2oc2c(I)c(O)ccc12", "pH0.5": 4.13}
{"entry.smiles": "O=C(O)c1c(Cl)c(Cl)c(Cl)c(Cl)c1-c1c2cc(Br)c(=O)c(Br)c-2oc2c(Br)c(O)c(Br)cc12", "pH0.5": 3.45}
{"entry.smiles": "O=C(O)c1ccccc1-c1c2ccc(=O)c(Br)c-2oc2c(Br)c(O)ccc12", "pH0.5": 4.63}
{"entry.smiles": "O=C(O)c1c(Cl)c(Cl)c(Cl)c(Cl)c1-c1c2cc(I)c(=O)c(I)c-2oc2c(I)c(O)c(I)cc12", "pH0.5": 3.99}
{"entry.smiles": "O=C(O)c1c(Cl)c(Cl)c(Cl)c(Cl)c1-c1c2ccc(=O)cc-2oc2cc(O)ccc12", "pH0.5": 5.89}

Req: Fill in: pH0.5 of O=C(O)c1ccccc1-c1c2cc(I)c(=O)c(I)c-2oc2c(I)c(O)c(I)cc12 is ___
Resp: 4.07

Req: Item: O=C(O)c1c(Cl)c(Cl)c(Cl)c(Cl)c1-c1c2cc(Cl)c(=O)c(Cl)c-2oc2c(Cl)c(O)c(Cl)cc12
Resp: 3.41

Req: Item: O=C(O)c1ccccc1-c1c2cc(Cl)c(=O)c(Cl)c-2oc2c(Cl)c(O)c(Cl)cc12
Resp: 2.79
